Biological target: T1, sIL-6R (soluble IL-6 receptor; SBH Sciences) (human, UniProt P08887 20-365)
T1 construct: also called human IL-6R
T1 sequence: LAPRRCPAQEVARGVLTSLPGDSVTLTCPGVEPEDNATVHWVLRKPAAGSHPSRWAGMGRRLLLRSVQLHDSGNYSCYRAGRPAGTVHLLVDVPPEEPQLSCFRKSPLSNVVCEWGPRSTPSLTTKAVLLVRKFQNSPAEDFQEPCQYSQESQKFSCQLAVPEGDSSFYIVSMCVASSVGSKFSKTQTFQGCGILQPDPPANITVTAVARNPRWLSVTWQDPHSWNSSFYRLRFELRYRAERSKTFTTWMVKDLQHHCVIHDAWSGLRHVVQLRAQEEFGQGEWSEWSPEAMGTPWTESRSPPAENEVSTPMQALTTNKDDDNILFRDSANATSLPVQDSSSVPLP
Assay: SPR (BIAcore 3000), antibody on chip, sIL-6R analyte, 25 C
Measurement Name: log10 koff (log10 of the value in s⁻¹)
Base-10 log of koff, unit s⁻¹.

- Binder: "60# (antibody, human IgG1, kappa, V domains shown, also called Sample # 60) VH: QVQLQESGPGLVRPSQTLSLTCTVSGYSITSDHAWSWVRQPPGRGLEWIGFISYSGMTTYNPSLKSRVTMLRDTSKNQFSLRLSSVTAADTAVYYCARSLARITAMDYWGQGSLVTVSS VL: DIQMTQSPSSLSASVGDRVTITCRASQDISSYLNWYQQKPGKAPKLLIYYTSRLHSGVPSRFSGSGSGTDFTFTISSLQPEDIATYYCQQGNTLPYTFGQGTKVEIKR"
  log10 koff: -4.34
- Binder: "208# (antibody, human IgG1, kappa, V domains shown, also called Sample # 208) VH: QVQLQESGPGLVRPSQTLSLTCTVSGYSITSDHAWSWVRQPPGRGLEWIGFISYSGMTTYNPSLKSRVTMLRDTSKNQFSLRLSSVTAADTAVYYCARSLARATAMDYWGQGSLVTVSS VL: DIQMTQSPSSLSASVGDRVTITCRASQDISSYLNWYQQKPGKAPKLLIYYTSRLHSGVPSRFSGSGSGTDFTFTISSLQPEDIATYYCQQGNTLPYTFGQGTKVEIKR"
  log10 koff: -4.55
- Binder: "68# (antibody, human IgG1, kappa, V domains shown, also called Sample # 68) VH: QVQLQESGPGLVRPSQTLSLTCTVSGYSITSDHAWSWVRQPPGRGLEWIGFISYSGMTTYNPSLKSRVTMLRDTSKNQFSLRLSSVTAADTAVYYCARCLARITAIDYFGQGSLVTVSS VL: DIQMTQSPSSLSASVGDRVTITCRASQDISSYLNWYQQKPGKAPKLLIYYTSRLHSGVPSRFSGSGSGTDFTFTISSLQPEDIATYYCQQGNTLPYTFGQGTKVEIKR"
  log10 koff: -5.07

Please look at the items below and tell me log10 koff for each one, in order.
1. 204# (antibody, human IgG1, kappa, V domains shown) VH: QVQLQESGPGLVRPSQTLSLTCTVSGYSITSDHAWSWVRQPPGRGLEWIGFISYSGMTTYNPSLKSRVTMLRDTSKNQFSLRLSSVTAADTAVYYCARCLARITAMDYWGQGSLVTVSS VL: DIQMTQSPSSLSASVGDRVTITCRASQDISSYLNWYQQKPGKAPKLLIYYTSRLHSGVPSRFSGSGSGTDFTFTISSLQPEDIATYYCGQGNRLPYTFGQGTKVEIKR
2. 202# (antibody, human IgG1, kappa, V domains shown) VH: QVQLQESGPGLVRPSQTLSLTCTVSGYSITSDHAWSWVRQPPGRGLEWIGYISYSGITTYNPSLKSRVTMLRDTSKNQFSLRLSSVTAADTAVYYCARVLARITAMDYWGQGSLVTVSS VL: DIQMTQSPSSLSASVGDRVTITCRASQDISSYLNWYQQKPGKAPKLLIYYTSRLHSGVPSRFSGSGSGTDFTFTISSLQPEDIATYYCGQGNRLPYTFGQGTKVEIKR
3. Tocilizumab (antibody, human IgG1, kappa, V domains shown, also called 25; 25(control)) VH: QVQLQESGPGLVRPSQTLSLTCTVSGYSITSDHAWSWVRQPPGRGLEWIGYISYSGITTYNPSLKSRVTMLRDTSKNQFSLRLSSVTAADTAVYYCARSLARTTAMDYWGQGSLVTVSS VL: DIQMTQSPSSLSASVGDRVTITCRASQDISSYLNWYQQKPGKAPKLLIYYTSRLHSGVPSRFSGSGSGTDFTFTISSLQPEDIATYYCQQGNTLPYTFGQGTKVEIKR
4. 51# (antibody, human IgG1, kappa, V domains shown, also called Sample # 51) VH: QVQLQESGPGLVRPSQTLSLTCTVSGYSITSDHAWSWVRQPPGRGLEWIGYISYSGITTYNPSLKSRVTMLRDTSKNQFSLRLSSVTAADTAVYYCARCLARMTAMDYWGQGSLVTVSS VL: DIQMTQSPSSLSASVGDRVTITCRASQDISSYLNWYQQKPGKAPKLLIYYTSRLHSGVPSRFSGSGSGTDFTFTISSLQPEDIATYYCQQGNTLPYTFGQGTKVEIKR

stdout:
[-5.48, -5.61, -3.46, -4.24]

stdin: Item 203# (antibody, human IgG1, kappa, V domains shown, also called Sample # 203) VH: QVQLQESGPGLVRPSQTLSLTCTVSGYSITSDHAWSWVRQPPGRGLEWIGYISYSGITTYNPSLKSRVTMLRDTSKNQFSLRLSSVTAADTAVYYCARCLARMTAMDYWGQGSLVTVSS VL: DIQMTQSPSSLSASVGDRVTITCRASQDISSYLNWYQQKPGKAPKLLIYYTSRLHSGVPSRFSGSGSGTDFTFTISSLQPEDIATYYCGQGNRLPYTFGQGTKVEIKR : provide log10 koff
stdout: -4.50
